# credit: patent US10300058B2

biological target: wild-type EGFR (WT EGFR) (Homo sapiens (Human), UniProt P00533); assay: Mobility Shift Assay, in vitro enzyme-inhibiting activity, wild-type EGFR; type: biochemical; details: Table 6; Km ATP
Sequence (P00533 25-1210): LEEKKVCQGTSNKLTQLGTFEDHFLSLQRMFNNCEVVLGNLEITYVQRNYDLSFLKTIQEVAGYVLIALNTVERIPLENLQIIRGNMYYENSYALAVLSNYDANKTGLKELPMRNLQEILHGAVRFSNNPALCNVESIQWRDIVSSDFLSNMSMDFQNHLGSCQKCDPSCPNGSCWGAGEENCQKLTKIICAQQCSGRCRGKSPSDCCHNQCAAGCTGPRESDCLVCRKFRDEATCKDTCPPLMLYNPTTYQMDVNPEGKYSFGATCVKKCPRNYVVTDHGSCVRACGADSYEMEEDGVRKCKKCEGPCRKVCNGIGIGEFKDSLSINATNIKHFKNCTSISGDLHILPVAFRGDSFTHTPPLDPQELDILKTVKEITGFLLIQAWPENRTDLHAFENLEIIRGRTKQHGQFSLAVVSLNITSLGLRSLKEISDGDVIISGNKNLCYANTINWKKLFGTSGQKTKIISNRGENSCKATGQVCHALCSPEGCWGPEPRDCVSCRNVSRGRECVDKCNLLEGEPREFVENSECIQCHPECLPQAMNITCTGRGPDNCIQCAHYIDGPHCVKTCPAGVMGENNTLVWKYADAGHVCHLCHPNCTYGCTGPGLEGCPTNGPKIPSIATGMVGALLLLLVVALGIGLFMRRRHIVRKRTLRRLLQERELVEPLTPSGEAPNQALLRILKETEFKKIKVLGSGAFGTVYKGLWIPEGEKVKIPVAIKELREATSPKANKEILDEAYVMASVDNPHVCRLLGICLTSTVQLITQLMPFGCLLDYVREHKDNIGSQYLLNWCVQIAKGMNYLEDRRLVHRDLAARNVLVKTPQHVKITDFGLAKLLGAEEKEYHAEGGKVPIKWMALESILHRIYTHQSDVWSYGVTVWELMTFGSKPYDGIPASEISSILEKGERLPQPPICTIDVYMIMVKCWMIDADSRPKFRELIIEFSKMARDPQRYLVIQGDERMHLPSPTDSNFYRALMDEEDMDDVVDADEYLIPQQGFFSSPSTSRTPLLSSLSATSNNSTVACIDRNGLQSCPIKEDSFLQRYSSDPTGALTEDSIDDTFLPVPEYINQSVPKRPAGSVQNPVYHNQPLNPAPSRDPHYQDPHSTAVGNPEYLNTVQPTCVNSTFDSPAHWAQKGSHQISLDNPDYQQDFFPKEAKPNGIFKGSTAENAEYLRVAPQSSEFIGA
property label: IC50 (nM)
Use nM as the unit, but write only the number.

Requested read-out: IC50. Entry: C=CC(=O)Nc1cccc(Nc2nc(Nc3ccc(C4CCN(C)C(=O)C4)cc3OC)ncc2C(F)(F)F)c1 (stereo not shown)
236

* * *

molecular target: EGFR T790M (Homo sapiens (Human), UniProt P00533, T790M); test: Mobility Shift Assay, in vitro enzyme-inhibiting activity, EGFR T790M; format: biochemical; details: Table 7; Km ATP
Sequence (P00533 25-1210 T790M): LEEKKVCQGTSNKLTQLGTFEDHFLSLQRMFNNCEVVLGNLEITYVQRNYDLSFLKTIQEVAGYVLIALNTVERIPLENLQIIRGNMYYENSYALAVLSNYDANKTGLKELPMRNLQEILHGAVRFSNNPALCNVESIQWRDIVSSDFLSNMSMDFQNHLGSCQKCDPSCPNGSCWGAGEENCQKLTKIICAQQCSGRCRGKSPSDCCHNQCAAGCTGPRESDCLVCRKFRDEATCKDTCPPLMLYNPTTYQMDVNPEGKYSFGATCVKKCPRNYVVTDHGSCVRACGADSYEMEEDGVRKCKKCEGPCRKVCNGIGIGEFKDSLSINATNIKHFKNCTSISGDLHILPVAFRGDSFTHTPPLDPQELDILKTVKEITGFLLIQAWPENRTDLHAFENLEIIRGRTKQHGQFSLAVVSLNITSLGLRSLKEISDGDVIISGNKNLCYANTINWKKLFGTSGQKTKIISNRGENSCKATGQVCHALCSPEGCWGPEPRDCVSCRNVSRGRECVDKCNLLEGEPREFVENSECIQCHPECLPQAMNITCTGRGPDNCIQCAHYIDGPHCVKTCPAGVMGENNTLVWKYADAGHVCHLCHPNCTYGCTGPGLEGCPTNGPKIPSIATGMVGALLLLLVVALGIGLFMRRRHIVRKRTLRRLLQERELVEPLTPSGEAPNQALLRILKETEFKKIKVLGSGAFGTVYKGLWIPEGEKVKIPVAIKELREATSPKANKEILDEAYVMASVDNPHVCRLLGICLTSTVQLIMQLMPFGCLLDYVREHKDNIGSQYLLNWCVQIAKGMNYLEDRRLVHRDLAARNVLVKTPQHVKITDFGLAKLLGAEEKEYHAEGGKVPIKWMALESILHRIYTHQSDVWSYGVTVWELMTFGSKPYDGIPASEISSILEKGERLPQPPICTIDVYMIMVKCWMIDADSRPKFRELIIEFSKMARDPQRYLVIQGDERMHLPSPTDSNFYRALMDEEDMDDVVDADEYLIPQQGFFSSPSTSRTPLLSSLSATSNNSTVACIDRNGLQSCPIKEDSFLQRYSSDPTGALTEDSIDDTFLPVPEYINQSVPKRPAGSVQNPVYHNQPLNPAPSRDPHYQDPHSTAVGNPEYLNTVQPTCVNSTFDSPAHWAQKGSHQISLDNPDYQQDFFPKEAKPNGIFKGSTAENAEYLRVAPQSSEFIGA
property label: pIC50
The meaning of pIC50 here: minus log10 of the concentration in molar units.

// below: answered compounds
compound	pIC50
C=CC(=O)Nc1cccc(Nc2nc(Nc3ccc(C4CCN(C(=O)CC)CC4)cc3OC)ncc2C(F)(F)F)c1	8.04
C=CC(=O)Nc1cccc(Nc2nc(Nc3ccc(N4CC5(CN(C(C)=O)C5)C4)cc3OC)ncc2C(F)(F)F)c1	8.45
C=CC(=O)Nc1cccc(Nc2nc(Nc3ccc(N4C[C@H]5CN(C(C)=O)C[C@H]5C4)cc3OC)ncc2C(F)(F)F)c1	8.05
C=CC(=O)Nc1cccc(Nc2nc(Nc3ccc(C4CCN(C(C)=O)CC4)cc3OC)ncc2C(F)(F)F)n1	8.14

Note: attention shifts to another entry.
Please report the recorded pIC50 for C=CC(=O)Nc1cccc(Nc2nc(Nc3ccc(C4CCNC(=O)C4)cc3OC)ncc2C(F)(F)F)c1 (centres unmarked) .
8.57

* * *

test: Pharmacokinetics in dog; assay type: in vivo, male Beagle dog; conditions: male, plasma; Beagle dog, po, 1 mg/kg
property label: Tmax
// unit must come after the numeric part

Given C=CC(=O)Nc1cccc(Nc2nc(Nc3ccc(N4CC5(CN(C(C)=O)C5)C4)cc3OC)ncc2C(F)(F)F)c1 , state its recorded Tmax.
1 h

* * *

experiment: Pharmacokinetics in nude mouse; type: in vivo; settings: female, BALB/c nude, plasma, po, 13.2 mg/kg
property label: AUC(0-t) (ng·h/mL)
Express your answer in ng·h/mL, writing the number without its unit.

Look up AUC(0-t): C=CC(=O)Nc1cccc(Nc2nc(Nc3ccc(N4CCN(C(C)=O)CC4)cc3OC)ncc2C(F)(F)F)c1 [CO-1686, reference compound]
2380

* * *

Each record here notes measured clearance.
experiment: Pharmacokinetics in dog; type: in vivo, male Beagle dog; conditions: male, plasma; Beagle dog, iv, 0.5 mg/kg
A bare number is not enough; add the unit after it.

Examples with answers:
compound	value reported
C=CC(=O)Nc1cccc(Nc2nc(Nc3ccc(C4CCN(C(C)=O)CC4)cc3OC)ncc2C(F)(F)F)c1	11.8 mL/min/kg
C=CC(=O)Nc1cccc(Nc2nc(Nc3ccc(N4CC5(CN(C(C)=O)C5)C4)cc3OC)ncc2C(F)(F)F)c1	6.67 mL/min/kg

Data request, read-out clearance, for C=CC(=O)Nc1cccc(Nc2nc(Nc3ccc(N4CCC(N5CCOCC5)CC4)cc3OC)ncc2C(F)(F)F)c1
5.5 mL/min/kg

* * *

experiment: Pharmacokinetics in dog; type: in vivo, male Beagle dog; details: male, plasma; Beagle dog, po, 1 mg/kg; read-out: F (absolute bioavailability)
property label: bioavailability (%)
Use % as the unit, but write only the number.

Which measured bioavailability value corresponds to C=CC(=O)Nc1cccc(Nc2nc(Nc3ccc(N4CC5(CN(C(C)=O)C5)C4)cc3OC)ncc2C(F)(F)F)c1 [Compound 31] ?
23

* * *

assay: Pharmacokinetics in rat; format: in vivo; conditions: male, plasma; SD rat, po, 2 mg/kg; read-out: F (absolute bioavailability)
property label: bioavailability (%)
Response body: numeric value in %, unit text excluded.

compound	unit label	bioavailability
C=CC(=O)Nc1cccc(Nc2nc(Nc3ccc(C4CCN(C(C)=O)CC4)cc3OC)ncc2C(F)(F)F)c1 [Compound 2]	%	19

Fill in: bioavailability of C=CC(=O)Nc1cccc(Nc2nc(Nc3ccc(C4CCN(S(C)(=O)=O)CC4)cc3OC)ncc2C(F)(F)F)c1 [Compound 27] is ___
49

* * *

test system: H1975 cell (EGFR-T790M/L858R double mutation); experiment: In vitro cytologic activity, Celltiter-Glo, H1975 cells; assay type: cell-based, human; details: Homo sapiens, NCI-H1975, 72 h, Table 9; 72 h, Celltiter-Glo
property label: pIC50
The quantity pIC50 is defined as the negative base-10 logarithm of the molar concentration.

Some compounds with known pIC50 results, for comparison:
compound	pIC50
C=CC(=O)Nc1cccc(Nc2nc(Nc3cc4c(cc3OC)CN(C(C)=O)CC4)ncc2C(F)(F)F)c1	6.75
C=CC(=O)Nc1cccc(Nc2nc(Nc3ccc(N4CCN(C(C)=O)CC4)cc3OC)ncc2C(F)(F)F)c1 [CO-1686, reference compound]	6.97
C=CC(=O)Nc1cccc(Nc2nc(Nc3ccc(C4CCN(C(C)=O)CC4)cc3OC)ncc2C(F)(F)F)c1	6.98

Lab note: next compound to report on.
Can you look up the measured pIC50 of C=CC(=O)Nc1cccc(Nc2nc(Nc3ccc(N4CCN(C(C)=O)CC4)cc3OC)ncc2C(F)(F)F)n1 for me?
7.27

* * *

target: EGFR (d746-750)-T790M (Homo sapiens (Human), UniProt P00533, DEL746-750/T790M); test: Mobility Shift Assay, in vitro enzyme-inhibiting activity, EGFR (d746-750)-T790M; format: biochemical; settings: Table 6; Km ATP; read-out: IC50 EGFR (d746-750)-T790M
Sequence (P00533 other isoform, or with tags, fused parts or gaps T790M/del 1-668/del 746-750 limits assumed): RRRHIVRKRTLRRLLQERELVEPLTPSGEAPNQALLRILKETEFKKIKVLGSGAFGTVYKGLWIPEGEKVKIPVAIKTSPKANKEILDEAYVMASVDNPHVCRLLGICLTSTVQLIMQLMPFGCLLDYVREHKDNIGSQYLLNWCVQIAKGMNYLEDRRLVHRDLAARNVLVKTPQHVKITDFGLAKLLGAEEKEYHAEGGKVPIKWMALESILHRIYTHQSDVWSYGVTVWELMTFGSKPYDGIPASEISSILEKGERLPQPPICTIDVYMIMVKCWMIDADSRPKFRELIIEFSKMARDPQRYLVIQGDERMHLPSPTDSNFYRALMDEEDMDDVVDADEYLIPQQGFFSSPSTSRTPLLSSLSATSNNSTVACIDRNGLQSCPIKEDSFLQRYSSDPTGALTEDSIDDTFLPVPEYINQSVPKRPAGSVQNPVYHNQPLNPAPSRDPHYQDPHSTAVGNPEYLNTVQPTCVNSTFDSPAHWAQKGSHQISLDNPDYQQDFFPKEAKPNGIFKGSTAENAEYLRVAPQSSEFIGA
property label: pIC50
# reply with the number alone; pIC50 is -log10 of concentration in mol/L

pIC50 of C=CC(=O)Nc1cccc(Nc2nc(Nc3ccc(C4CCN(C)C(=O)C4)cc3OC)ncc2C(F)(F)F)c1 (stereo not shown) [Compound 21] on EGFR (d746-750)-T790M (Homo sapiens (Human), UniProt P00533, DEL746-750/T790M)?
8.46

* * *

test: Pharmacokinetics in rat; type: in vivo; details: male, plasma; SD rat, iv, 1 mg/kg
property label: AUC(0-t) (ng·h/mL)
Give a bare numeral; the unit ng·h/mL is implied.

Which AUC(0-t) is reported for this compound? C=CC(=O)Nc1cccc(Nc2nc(Nc3ccc(C4CCN(S(C)(=O)=O)CC4)cc3OC)ncc2C(F)(F)F)c1 [Compound 27]
774

For C=CC(=O)Nc1cccc(Nc2nc(Nc3ccc(C4CCN(C(C)=O)CC4)cc3OC)ncc2C(F)(F)F)c1 [Compound 2] then?
723

* * *

biological target: EGFR T790M (Homo sapiens (Human), UniProt P00533, T790M); test: Mobility Shift Assay, in vitro enzyme-inhibiting activity, EGFR T790M; type: biochemical; conditions: Table 3; Km ATP
property label: IC50 (nM)
Give the value, in units of nM, as a plain number.

Which IC50 value is on record for C=CC(=O)Nc1cccc(Nc2nc(Nc3ccc(C4CCN(C(C)=O)CC4)cc3OC)ncc2C(F)(F)F)n1 ?
7.2

* * *

Measured IC50, listed per entry.
biological target: wild-type EGFR (WT EGFR) (Homo sapiens (Human)); experiment: Mobility Shift Assay, in vitro enzyme-inhibiting activity, wild-type EGFR; type: biochemical; details: Table 1; Km ATP
Just the number please, in nM, no unit attached.

Worked cases, IC50 given:
molecule	property label	value reported
C=CC(=O)Nc1cccc(Nc2nc(Nc3ccc(C4=CCN(C(C)=O)CC4)cc3OC)ncc2C(F)(F)F)c1 [Compound 3]	IC50	699
C=CC(=O)Nc1cccc(Nc2nc(Nc3ccc(C4CCN(C(C)=O)CC4)cc3OC)ncc2C(F)(F)F)c1 [Compound 2]	IC50	552

Suppose we examine the molecule C=CC(=O)Nc1cccc(Nc2nc(Nc3ccc(N4CCN(C(C)=O)CC4)cc3OC)ncc2C(F)(F)F)n1 [Compound 1] ; what IC50 value has been reported?
323

* * *

molecular target: EGFR T790M (Homo sapiens (Human), UniProt P00533, T790M); assay: Mobility Shift Assay, in vitro enzyme-inhibiting activity, EGFR T790M; format: biochemical; details: Table 6; Km ATP
property label: pIC50
Hey, just a heads up that pIC50 is the negative log base 10 of the concentration in molar.

I am curious: what pIC50 value has been reported for C=CC(=O)Nc1cccc(Nc2nc(Nc3ccc(C4CCN(C)C(=O)C4)cc3OC)ncc2C(F)(F)F)c1 (stereo not shown) ?
8.46

* * *

Target: EGFR (d746-750) (Homo sapiens (Human), UniProt P00533, DEL746-750)
Sequence (P00533 other isoform, or with tags, fused parts or gaps del 1-668/del 746-750 limits assumed): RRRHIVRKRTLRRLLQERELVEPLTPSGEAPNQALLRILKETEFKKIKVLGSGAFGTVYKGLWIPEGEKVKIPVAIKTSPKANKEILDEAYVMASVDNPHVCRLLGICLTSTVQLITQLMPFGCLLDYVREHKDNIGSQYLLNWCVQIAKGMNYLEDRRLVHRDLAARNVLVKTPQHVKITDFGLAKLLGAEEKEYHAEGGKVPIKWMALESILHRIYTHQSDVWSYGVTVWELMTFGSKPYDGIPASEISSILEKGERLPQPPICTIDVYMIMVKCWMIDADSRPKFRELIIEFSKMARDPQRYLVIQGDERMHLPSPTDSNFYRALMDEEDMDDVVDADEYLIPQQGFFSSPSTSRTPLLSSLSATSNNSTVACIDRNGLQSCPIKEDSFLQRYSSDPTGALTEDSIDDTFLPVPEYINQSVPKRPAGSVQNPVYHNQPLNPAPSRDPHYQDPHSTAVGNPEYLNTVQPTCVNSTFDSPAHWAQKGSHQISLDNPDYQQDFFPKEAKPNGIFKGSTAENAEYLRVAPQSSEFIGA
Test: Mobility Shift Assay, in vitro enzyme-inhibiting activity, EGFR (d746-750)
Format: biochemical
Settings: Table 7; Km ATP
Experimental: 1. Preparation of Reagents 2. Preparation of a Compound Solution (1) To the second well of a 96-well plate, 5 μL 10 mM compound (dissolved in DMSO) was added, and 95 μL 100% DMSO was added to prepare 100 μL 0.5 mM compound. […] 4. Data on percent conversion was read by Caliper. […] (2) Inhibition rate of enzyme activity was calculated from the data on enzyme activity by the following formula: Inhibition rate(%)=(maximal value−the measured value of a test compound)/(maximal value-minimal value)×100, […]
property label: pIC50
Scale: negative log10 of molar concentration, which is what pIC50 denotes.

Example entries begin here.
compound	property label	value reported
C=CC(=O)Nc1cccc(Nc2nc(Nc3ccc(C4CCN(C(=O)CC)CC4)cc3OC)ncc2C(F)(F)F)c1	pIC50	7.04
C=CC(=O)Nc1cccc(Nc2nc(Nc3ccc(C4CCNC(=O)C4)cc3OC)ncc2C(F)(F)F)c1 (centres unmarked)	pIC50	7.55
C=CC(=O)Nc1cccc(Nc2nc(Nc3ccc(C4CCN(C(C)=O)CC4)cc3OC)ncc2C(F)(F)F)n1	pIC50	7.40
C=CC(=O)Nc1cccc(Nc2nc(Nc3ccc(N4CC5(CN(C(C)=O)C5)C4)cc3OC)ncc2C(F)(F)F)c1	pIC50	7.54

Requested field: pIC50. Item: C=CC(=O)Nc1cccc(Nc2nc(Nc3ccc(N4C[C@H]5CN(C(C)=O)C[C@H]5C4)cc3OC)ncc2C(F)(F)F)c1
7.03
